Molecular target: T1, human GIP receptor (human, UniProt P48546 22-466)
T1 sequence (looked up): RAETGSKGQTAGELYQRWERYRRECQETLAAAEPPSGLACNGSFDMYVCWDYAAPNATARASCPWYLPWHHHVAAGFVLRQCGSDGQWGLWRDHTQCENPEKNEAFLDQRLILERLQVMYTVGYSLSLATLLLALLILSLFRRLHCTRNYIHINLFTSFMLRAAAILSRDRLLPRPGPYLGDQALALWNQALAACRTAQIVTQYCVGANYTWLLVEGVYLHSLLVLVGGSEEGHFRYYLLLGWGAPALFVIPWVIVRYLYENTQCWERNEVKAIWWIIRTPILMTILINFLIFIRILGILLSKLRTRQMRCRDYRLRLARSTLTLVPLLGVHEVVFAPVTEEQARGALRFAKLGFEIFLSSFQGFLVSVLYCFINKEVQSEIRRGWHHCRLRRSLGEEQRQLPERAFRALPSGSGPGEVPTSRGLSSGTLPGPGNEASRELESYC
Assay: cell-based or functional assay
Starred links: 1 amine or outer side, 2 acyl side, 3 side chain; linkers in the order of their positions; H or OH if unused. Non-standard residues stand in square brackets, D forms with d. Groups on a side chain read outwards from the residue. No end group written: not given here. *: point of attachment. C20 diacid = O=C(O)CCCCCCCCCCCCCCCCCCC(=O)*; γGlu = O=C(O)[C@H](CCC(=O)[*:2])N[*:1]; AEEA = NCCOCCOCC(=O)O; Aib = CC(C)(N)C(=O)O
readout: EC50, CreLuc assay, 0.5% hP (nM)
# unit: nM | format: bare number

| binder | obs value |
| --- | --- |
| YXEGTFTSDYSIXLEKQAQXAFVQWLIKGGPRYYASLRHYYNWLTRQRY (Aib at 2, 13, 20; K28 side chain: C20DA-gGlu-gGlu-gGlu-gGlu-gGlu-gGlu-eLys; C-terminal NH2) [Compound 14] | 0.71 |

Find the recorded EC50, CreLuc assay, 0.5% hP belonging to YXEGTFTSDYSIXLEKQAQXAFVEWLIKGGPSSGASXRHYXNRXTRQRY (Aib at 2, 13, 20, 37, 41, 44; K28 side chain: C20DA-gGlu-gGlu-gGlu-gGlu-gGlu-gGlu-eLys; C-terminal NH2) [Compound 4] and report it. 0.25

Find the recorded EC50, CreLuc assay, 0.5% hP belonging to YXEGTFTSDYSIXLEKQAQXAFVEWLIKGGPSSGQSXRHYYNWLTRQRY (Aib at 2, 13, 20, 37; K28 side chain: C20DA-gGlu-gGlu-gGlu-gGlu-gGlu-gGlu-eLys; C-terminal NH2) [Compound 44] and report it. 0.05

Find the recorded EC50, CreLuc assay, 0.5% hP belonging to Y[Aib]EGTFTSDYSI[Aib]LEKQAQ[Aib]AFVQWLIK([AEEA-AEEA-γGlu-γGlu-γGlu-γGlu-C20 diacid])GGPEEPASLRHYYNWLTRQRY-NH2 (also: TFA salt) [Compound 77] and report it. 0.32

Find the recorded EC50, CreLuc assay, 0.5% hP belonging to YXEGTFTSDYSIXLEKQAQXAFVEWLIKGGPSSGASLRHYLNLXTRQRY (Aib at 2, 13, 20, 44; K28 side chain: C20DA-gGlu-gGlu-gGlu-gGlu-gGlu-gGlu-eLys; C-terminal NH2) [Compound 17] and report it. 0.43

Find the recorded EC50, CreLuc assay, 0.5% hP belonging to YXEGTFTSDYSIXLEKQAQXAFVQWLIKGGPESGASLRHYYNWLTRQRY (Aib at 2, 13, 20; K28 side chain: C20DA-gGlu-gGlu-gGlu-gGlu-gGlu-gGlu-eLys; C-terminal NH2) [Compound 37] and report it. 0.24

Find the recorded EC50, CreLuc assay, 0.5% hP belonging to YXEGTFTSDYSIXLEKQAQXEFVQWLIKGGPSSGASLRHYYNWLTRQRY (Aib at 2, 13, 20; K28 side chain: C20DA-gGlu-gGlu-gGlu-gGlu-gGlu-OEG-OEG; C-terminal NH2) [Compound 36] and report it. 0.26

Find the recorded EC50, CreLuc assay, 0.5% hP belonging to YXEGTFTSDYSIXLEEQAQXAFVQWLIKGGPSSGQSLRHYYNWLTRQRY (Aib at 2, 13, 20; K28 side chain: C20DA-gGlu-Glu-gGlu-gGlu-gGlu-gGlu-eLys; C-terminal NH2) [Compound 8] and report it. 0.12

Find the recorded EC50, CreLuc assay, 0.5% hP belonging to Y[Aib]EGTFTSDYSI[Aib]LEKQAQ[Aib]AFVEWLIKGGPSSGAS[Aib]RHYYNR[Aib]TRQRY-NH2 (not fully specified (residue 28); also: TFA salt) [Compound 13] and report it. 0.09

Find the recorded EC50, CreLuc assay, 0.5% hP belonging to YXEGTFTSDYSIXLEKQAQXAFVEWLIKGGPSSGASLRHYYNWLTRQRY (Aib at 2, 13, 20; DHis 39; DArg 46; DTyr 49; K28 side chain: C20DA-gGlu-gGlu-gGlu-gGlu-gGlu-gGlu-eLys; C-terminal NH2) [Compound 21] and report it. 0.14

Find the recorded EC50, CreLuc assay, 0.5% hP belonging to YXEGTFTSDYSIXLEKQAQXAFVEWLIKGGPSSGASLRHYYNWLTXQRY (Aib at 2, 13, 20; hArg 46; DTyr 49; K28 side chain: C20DA-gGlu-gGlu-gGlu-gGlu-gGlu-gGlu-eLys; C-terminal NH2) [Compound 71] and report it. 0.13

The reported measurements were obtained from patent US20240247080A1.
